test: Clearance in rat hepatocytes; assay type: ADME, cell-based, Hepatocyte
assay-metric: CLhep predicted (mL/min/kg)

These solved cases illustrate the format of a correct answer.
Cc1cncc(-c2cc3c(cn2)cnn3-c2cccc([C@H]3CNCCC3(F)F)n2)n1    31
CN1CCN(c2cc3c(-c4cccc(N5CCNCC5)n4)n[nH]c3cn2)CC1=O    18
Cc1ccc(-c2n[nH]c3cnc(-c4cccnc4)cc23)nc1N1CCC[C@H](N)C1    34

A. CCn1cc(-c2cc3c(-c4cccc(N5CCC[C@@H](N)C5)n4)n[nH]c3cn2)cn1
B. Cc1cncc(-c2cc3c(-c4cccc(N5CCCNCC5)n4)n[nH]c3cn2)n1
Request: Given the listed items, does A or B have the lesser reported CLhep predicted? Please identify the chosen entry by its label.
Result: A
